Quick list: TGI per entry.
# ASSAY TEXT: Growth inhibition of human […] cells after 48 hrs by sulforhodamine B assay
# Assay type: functional

MOLECULE	TGI (µM)
COc1ccc(/C=N/c2nc3[nH]nc(C)n3c(=O)c2S(=O)(=O)NN2C(=O)C(CN3CCN(C)CC3)SC2c2ccc(OC)cc2)cc1 (centres undefined)	39
COc1ccc(/C=N/c2nc3[nH]nc(C)n3c(=O)c2S(=O)(=O)NN2C(=O)C(CN3CCN(C)CC3)SC2c2cccs2)cc1 (centres undefined)	8.21
COc1ccc(/C=N/c2nc3[nH]nc(C)n3c(=O)c2S(=O)(=O)NN2C(=O)C(CN3CCOCC3)SC2c2cccs2)cc1 (centres undefined)	26.2
COc1ccc(/C=N/c2nc3[nH]nc(C)n3c(=O)c2S(=O)(=O)NN2C(=O)C(CN3CCOCC3)SC2c2ccc(OC)cc2)cc1 (centres undefined)	44.3

* * *

Quick list: GI50 per entry.
# Test system: SN12C
# ASSAY TEXT: Growth inhibition of human SN12C cells after 48 hrs by sulforhodamine B assay
# Format: functional

MOLECULE	UNIT ANNOTATION	GI50
COc1ccc(/C=N/c2nc3[nH]nc(C)n3c(=O)c2S(=O)(=O)NN2C(=O)C(CN3CCN(C)CC3)SC2c2cccs2)cc1 (centres undefined)	µM	4.68
COc1ccc(/C=N/c2nc3[nH]nc(C)n3c(=O)c2S(=O)(=O)NN2C(=O)C(CN3CCN(C)CC3)SC2c2ccc(OC)cc2)cc1 (centres undefined)	µM	18.6
COc1ccc(/C=N/c2nc3[nH]nc(C)n3c(=O)c2S(=O)(=O)NN2C(=O)C(CN3CCOCC3)SC2c2cccs2)cc1 (centres undefined)	µM	16.8
COc1ccc(/C=N/c2nc3[nH]nc(C)n3c(=O)c2S(=O)(=O)NN2C(=O)C(CN3CCOCC3)SC2c2ccc(OC)cc2)cc1 (centres undefined)	µM	55.1

* * *

Quick list: growth at 100 µM per entry.
# System: NCI-H460
# ASSAY TEXT: Antiproliferative activity against human NCI-H460 cells assessed as cell growth at 100 uM after 48 hrs by alamar blue assay
# Assay type: functional
# TEST CONTEXT: NCI-H460, 48 h, read-out: Activity
MEASUREMENT LABEL: growth at 100 µM (%)

MOLECULE	NUMERIC READOUT
COc1ccc(/C=N/c2nc3[nH]nc(C)n3c(=O)c2S(=O)(=O)Nc2ccc(Cl)cc2)cc1	102
COc1ccc(/C=N/c2nc3[nH]nc(C)n3c(=O)c2S(=O)(=O)N/N=C/c2cccs2)cc1	13
COc1ccc(/C=N/c2nc3[nH]nc(C)n3c(=O)c2S(=O)(=O)N/N=C/c2ccc(Cl)cc2)cc1	73
COc1ccc(/C=N/c2nc3[nH]nc(C)n3c(=O)c2S(=O)(=O)NN2C(=O)CSC2c2cccs2)cc1 (centres undefined)	106

* * *

Quick list: LC50 (50% lethal concentration) per entry.
# Test system: CAKI-1
# ASSAY TEXT: Growth inhibition of human Caki1 cells after 48 hrs by sulforhodamine B assay
# Type: functional
# TEST CONTEXT: CAKI-1, 48 h

COMPOUND	LC50 (50% lethal concentration)
COc1ccc(/C=N/c2nc3[nH]nc(C)n3c(=O)c2S(=O)(=O)NN2C(=O)C(CN3CCN(C)CC3)SC2c2cccs2)cc1 (centres undefined)	> 100 µM
COc1ccc(/C=N/c2nc3[nH]nc(C)n3c(=O)c2S(=O)(=O)NN2C(=O)C(CN3CCN(C)CC3)SC2c2ccc(OC)cc2)cc1 (centres undefined)	77.8 µM
COc1ccc(/C=N/c2nc3[nH]nc(C)n3c(=O)c2S(=O)(=O)NN2C(=O)C(CN3CCOCC3)SC2c2cccs2)cc1 (centres undefined)	> 100 µM
COc1ccc(/C=N/c2nc3[nH]nc(C)n3c(=O)c2S(=O)(=O)NN2C(=O)C(CN3CCOCC3)SC2c2ccc(OC)cc2)cc1 (centres undefined)	> 100 µM
